// reported Skin radioactivity for each item listed
# System: pig ear skin explants
# Method Summary: Cutaneous distribution and mass balance of radioactivity in pig skin explants
# Details: pig skin, end of incubation (48 h), mean ± SD
Measured Quantity: Skin radioactivity

>>> result("Cn1c(N)nc2c3cccnc3ccc21 [IQ, 2‐amino‐3‐methylimidazo[4,5‐f]quinoline]")
"33.6 ± 5.1 % of the applied dose"
>>> result("CC(=O)Nc1ccc2c(c1)Cc1ccccc1-2")
"12.6 ± 1.5 % of the applied dose"
>>> result("CCOc1ccc2ccc(=O)oc2c1")
"9.3 ± 0.4 % of the applied dose"
>>> result("Cn1c(=O)c2c(ncn2C)n(C)c1=O")
"8.4 ± 0.4 % of the applied dose"
>>> result("OCC=Cc1ccccc1")
"8.5 ± 0.8 % of the applied dose"
>>> result("Nc1ccc(O)cc1[N+](=O)[O-]")
"15.6 ± 5.3 % of the applied dose"

* * *

Recorded Mass balance (% of applied dose at end of incubation) by entry
# System: human abdominal skin explants
# Method Summary: Cutaneous distribution and mass balance of radioactivity in human skin explants
# Details: human skin, 24 h
Measured Quantity: Mass balance (% of applied dose at end of incubation)

>>> result("Oc1cccc(O)c1")
"94.2 ± 3.5 % of applied dose"
>>> result("CC(=O)Nc1ccc2c(c1)Cc1ccccc1-2")
"91.6 ± 4.5 % of applied dose"
>>> result("OCC=Cc1ccccc1")
"99.9 ± 5.8 % of applied dose"
>>> result("Cn1c(=O)c2c(ncn2C)n(C)c1=O")
"104.0 ± 0.7 % of applied dose"
>>> result("CCOc1ccc2ccc(=O)oc2c1")
"91.9 ± 3.8 % of applied dose"
>>> result("Cn1c(N)nc2c3cccnc3ccc21 [IQ, 2‐amino‐3‐methylimidazo[4,5‐f]quinoline]")
"94.5 ± 10.6 % of applied dose"
>>> result("Nc1ccc(O)cc1[N+](=O)[O-]")
"94.4 ± 3.0 % of applied dose"
>>> result("COc1cc(C=O)ccc1O")
"104.4 ± 6.0 % of applied dose"
>>> result("Nc1ccc(Cl)cc1")
"86.2 ± 0.7 % of applied dose"

* * *

# Tested on: pig ear skin explants
# Method Summary: Cutaneous distribution and mass balance of radioactivity in pig skin explants
# Details: pig skin, end of incubation (48 h), mean ± SD
# Method: Human abdominal skin was obtained (with consent for research from a commercial supplier [L’Union Clinic, Rangueil hospital and Icelltis, Toulouse, France] with certified ethical procedures) from six male and 34 female healthy donors, 41 ± 11 years of age, undergoing cosmetic surgery. Abdominal skin was kept at 4°C during transports and placed in culture within 3 hours of surgery. […] Pig skin explants were digested using 3 mL Soluable (60°C for 24 hours) and counted by liquid scintillation. […]
Measured Quantity: Skin surface radioactivity

>>> result("Nc1ccc(O)cc1[N+](=O)[O-] [4‐A‐3‐NP, 4‐amino‐3‐nitrophenol]")
"10.5 ± 5.1 % of the applied dose"
>>> result("CCOc1ccc2ccc(=O)oc2c1 [7‐EC, 7‐ethoxycoumarin]")
"1.0 ± 0.1 % of the applied dose"
>>> result("Cn1c(N)nc2c3cccnc3ccc21 [IQ, 2‐amino‐3‐methylimidazo[4,5‐f]quinoline]")
"7.8 ± 3.9 % of the applied dose"
>>> result("Cn1c(=O)c2c(ncn2C)n(C)c1=O [Caffeine]")
"8.8 ± 10.6 % of the applied dose"
>>> result("CC(=O)Nc1ccc2c(c1)Cc1ccccc1-2 [2‐AAF, 2‐acetyl aminofluorene]")
"1.4 ± 0.4 % of the applied dose"
>>> result("OCC=Cc1ccccc1 [Cinnamyl alcohol]")
"1.2 ± 1.1 % of the applied dose"
>>> result("Nc1ccc(Cl)cc1 [4‐Chloroaniline]")
"0.7 ± 0.2 % of the applied dose"

* * *

# Test system: pig ear skin explants
# Details: pig skin, 24 h, mean ± SEM
Binarize Parent compound in the medium after 24 h at 0.1 % Applied dose; below is rule met, at or above is rule not met.

>>> class_label("Oc1cccc(O)c1 [Resorcinol]")
"rule not met"
>>> class_label("Nc1ccc(O)cc1[N+](=O)[O-] [4‐A‐3‐NP, 4‐amino‐3‐nitrophenol]")
"rule not met"
>>> class_label("CCOc1ccc2ccc(=O)oc2c1 [7‐EC, 7‐ethoxycoumarin]")
"rule not met"
>>> class_label("OCC=Cc1ccccc1 [Cinnamyl alcohol]")
"rule met"

* * *

# Test system: pig ear skin explants
# Method Summary: Cutaneous distribution and mass balance of radioactivity in pig skin explants
# Details: pig skin, 24 h, 2.4 nmol/cm^2
Please assign 0.0 whenever % Radioactivity in culture media after 24 h is at or above 60%, and 1.0 whenever it is below.

>>> class_label("Cn1c(=O)c2c(ncn2C)n(C)c1=O [Caffeine]")
0.0
>>> class_label("Cn1c(N)nc2c3cccnc3ccc21 [IQ, 2‐amino‐3‐methylimidazo[4,5‐f]quinoline]")
1.0
>>> class_label("Nc1ccc(Cl)cc1 [4‐Chloroaniline]")
1.0
>>> class_label("Nc1ccc(O)cc1[N+](=O)[O-] [4‐A‐3‐NP, 4‐amino‐3‐nitrophenol]")
1.0
>>> class_label("CC(=O)Nc1ccc2c(c1)Cc1ccccc1-2 [2‐AAF, 2‐acetyl aminofluorene]")
1.0
>>> class_label("OCC=Cc1ccccc1 [Cinnamyl alcohol]")
0.0
>>> class_label("CCOc1ccc2ccc(=O)oc2c1 [7‐EC, 7‐ethoxycoumarin]")
0.0

* * *

# Tested on: human abdominal skin explants
# Method Summary: Cutaneous distribution and mass balance of radioactivity in human skin explants
# Details: human skin, end of incubation (24 h), mean ± SD
In this section we review reported Medium radioactivity values for a set of compounds.
Measured Quantity: Medium radioactivity

>>> result("Cn1c(N)nc2c3cccnc3ccc21 [IQ, 2‐amino‐3‐methylimidazo[4,5‐f]quinoline]")
"10.5 ± 13.4 % of the applied dose"
>>> result("CC(=O)Nc1ccc2c(c1)Cc1ccccc1-2")
"48.3 ± 4.2 % of the applied dose"
>>> result("Nc1ccc(O)cc1[N+](=O)[O-]")
"62.3 ± 3.4 % of the applied dose"
>>> result("CCOc1ccc2ccc(=O)oc2c1")
"66.7 ± 3.5 % of the applied dose"
>>> result("OCC=Cc1ccccc1")
"83.5 ± 4.8 % of the applied dose"
>>> result("COc1cc(C=O)ccc1O")
"60.0 ± 7.8 % of the applied dose"
>>> result("Oc1cccc(O)c1")
"54.4 ± 1.5 % of the applied dose"
>>> result("Cn1c(=O)c2c(ncn2C)n(C)c1=O")
"81.4 ± 3.3 % of the applied dose"

* * *

// each record: one item and its Amount of metabolite in the medium after 24 h for pig ear skin explants
Measured Quantity: Amount of metabolite in the medium after 24 h (% Applied dose)

>>> numeric_value("O=S(=O)(O)Oc1cccc(O)c1 [R‐sulfate]")
0.5
>>> numeric_value("Nc1ccc(OC2OC(C(=O)O)C(O)C(O)C2O)cc1[N+](=O)[O-] (centres unmarked) [4‐A‐3‐NP‐glucuronide]")
45.5
>>> numeric_value("Nc1ccc(OS(=O)(=O)O)cc1[N+](=O)[O-] [4‐A‐3‐NP‐sulfate]")
1.8
>>> numeric_value("O=C(O)[C@H]1O[C@@H](Oc2ccc3ccc(=O)oc3c2)[C@H](O)[C@@H](O)[C@@H]1O [HC‐glucuronide]")
4.9
>>> numeric_value("O=C(O[C@@H]1O[C@H](C(=O)O)[C@@H](O)[C@H](O)[C@H]1O)c1ccccc1 [II (benzoic acid glucuronide), benzoic acid glucuronide]")
0.5
>>> numeric_value("O=C(O)C1OC(Oc2cccc(O)c2)C(O)C(O)C1O (centres unmarked) [R‐glucuronide]")
48.6
>>> numeric_value("O=c1ccc2ccc(OS(=O)(=O)[O-])cc2o1.[K+] [HC‐sulfate]")
2.6
>>> numeric_value("COc1cc(C=O)ccc1O[C@@H]1O[C@H](C(=O)O)[C@@H](O)[C@H](O)[C@H]1O [III (vanillin glucuronide), vanillin glucuronide]")
2.9

* * *

Attribute: Skin surface radioactivity
# System: human abdominal skin explants
# Method Summary: Cutaneous distribution and mass balance of radioactivity in human skin explants
# Details: human skin, end of incubation (24 h), mean ± SD
Measured Quantity: Skin surface radioactivity

>>> result("Cn1c(N)nc2c3cccnc3ccc21 [IQ, 2‐amino‐3‐methylimidazo[4,5‐f]quinoline]")
"17.9 ± 3.7 % of the applied dose"
>>> result("Cn1c(=O)c2c(ncn2C)n(C)c1=O")
"0.8 ± 0.8 % of the applied dose"
>>> result("CC(=O)Nc1ccc2c(c1)Cc1ccccc1-2")
"2.8 ± 0.3 % of the applied dose"
>>> result("Nc1ccc(Cl)cc1")
"2.2 ± 0.5 % of the applied dose"
>>> result("CCOc1ccc2ccc(=O)oc2c1")
"1.4 ± 0.2 % of the applied dose"
>>> result("Nc1ccc(O)cc1[N+](=O)[O-]")
"3.6 ± 2.1 % of the applied dose"
>>> result("OCC=Cc1ccccc1")
"0.2 ± 0.1 % of the applied dose"

* * *

# Test system: human abdominal skin explants
Measured Quantity: Amount of metabolite in the medium after 24 h

>>> result("O=C(O)[C@H]1O[C@@H](Oc2ccc3ccc(=O)oc3c2)[C@H](O)[C@@H](O)[C@@H]1O [HC‐glucuronide]")
"2.2 ± 1.2 % Applied dose"
>>> result("Nc1ccc(OS(=O)(=O)O)cc1[N+](=O)[O-] [4‐A‐3‐NP‐sulfate]")
"9.98 ± 2.7 % Applied dose"
>>> result("O=c1ccc2ccc(OS(=O)(=O)[O-])cc2o1.[K+] [HC‐sulfate]")
"0.9 ± 0.6 % Applied dose"

The reported measurements were obtained from paper PMC6587507.
